Values compiled from patent US20250195521A1.

Assayed Target: KRAS G13D (Homo sapiens (Human), UniProt P01116+P62937, G13D)
Sequence (P01116 other isoform, or with tags, fused parts or gaps G13D): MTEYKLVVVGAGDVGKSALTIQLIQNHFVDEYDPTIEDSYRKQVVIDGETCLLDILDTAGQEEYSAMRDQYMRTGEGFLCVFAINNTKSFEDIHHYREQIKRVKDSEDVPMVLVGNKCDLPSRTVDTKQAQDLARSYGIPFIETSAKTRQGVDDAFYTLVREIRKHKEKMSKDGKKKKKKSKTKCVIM
Sequence (P62937 whole entry): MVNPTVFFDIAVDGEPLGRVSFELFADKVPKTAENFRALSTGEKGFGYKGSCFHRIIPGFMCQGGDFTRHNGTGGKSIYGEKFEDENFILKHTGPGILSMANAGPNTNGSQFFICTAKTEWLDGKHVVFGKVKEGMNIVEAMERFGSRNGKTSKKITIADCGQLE
Experiment Summary: Ras-Raf disruption/FRET/MOA assay (BRAF RBD, Cyclophilin A)
Assay type: biochemical
Condition Notes: read-out: KRAS G13D FRET data IC50
pIC50: −log10 of the molar value.
Would you mind telling me the reported pIC50 of each entry?

Query CO[C@@H](C)c1ncccc1-c1c2c3cc(ccc3n1C)-c1cc(O)cc(c1)C[C@H](NC(=O)[C@H](C(C)C)N(C)C(C)=O)C(=O)N1CCC[C@H](N1)C(=O)OCC(C)(C)C2 yields pIC50 of < 5.00

The molecule listed as CCn1c(-c2cnccc2COC)c2c3cc(ccc31)-c1cc(O)cc(c1)C[C@H](NC(=O)[C@H](C(C)C)N(C)C(=O)CN/C(N)=N/C#N)C(=O)N1CCC[C@H](N1)C(=O)OCC(C)(C)C2 has a reported pIC50 of 6.00 to 7.00

Field pIC50 (entry CCn1c(-c2cccnc2[C@H](C)OC)c2c3cc(ccc31)-c1cc(O)cc(c1)C[C@H](NC(=O)[C@@H](C(C)C)N(C)C(C)=O)C(=O)N1CCC[C@H](N1)C(=O)OCC(C)(C)C2 ) reads 5.00 to 6.00

# molecule CCn1c(-c2cccnc2[C@H](C)OC)c2c3cc(ccc31)-c1cc(O)cc(c1)C[C@H](NC(=O)[C@H](C(C)C)N(C)C(=O)[C@H]1CNC[C@@H]1C)C(=O)N1CCC[C@H](N1)C(=O)OCC(C)(C)C2 ; its pIC50 = 7.00 to 8.00

pIC50 in this record for CCn1c(-c2cccnc2[C@H](C)OC)c2c3cc(ccc31)-c1cc(O)cc(c1)C[C@H](NS(=O)(=O)CC1CC1)C(=O)N1CCC[C@H](N1)C(=O)OCC(C)(C)C2 : < 5.00
